The origin of these recorded values is PubChem BioAssay.

# test-system: Potassium voltage-gated channel subfamily KQT member 1 (Homo sapiens)
# experiment-description: KCNQ1 potassium channel potentiators, confirmation, FluxOR thallium flux, CHO cells, duplicates (AID 493007);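 as to outcome: cells depolarized by a potassium plus thallium sulfate stimulus after compound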
# study-conditions: KCNQ1 cell line, FluxOR thallium flux fluorescence, at 10 µM, % of reference activator effect, buffer zero
The source made the active and inactive calls.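 The calls were made as follows: active = potentiation averaged over duplicate wells exceeding buffer-only control mean by more than 3 SD; inactive = the rest.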
Respond only with the outcome that fits, drawn from y = active, n = inactive

q: Kindly provide the recorded test outcome for the following compound: "CCc1ccc(NC(=O)C(=O)NNC(=O)c2ccc(OC)cc2)cc1"
a: y

q: Which result was noted for this compound in the test: CCCCC(Nc1ncnc2ccccc12)C(=O)O (stereo unspecified)
a: n

q: For this compound, state the assay outcome: "COC(=O)[C@@H]1CCCN1C(=O)CCc1nnc(CCC2CCCCC2)o1"
a: n

q: I would be grateful if you could indicate the recorded call for "CCOC(=O)c1ccc(-n2c(CN3CCOCC3)nc3ccc([N+](=O)[O-])cc3c2=O)cc1" .
a: n

q: Which outcome did this test record for the compound "Cc1c(C(=O)NC(=S)NCc2cccnc2)oc2ccccc12" ?
a: n

q: Dear colleague, could you share the recorded outcome for "CC1=NOC(=O)/C1=C\c1ccc(-c2ccc(Br)cc2)o1" when you have a moment?
a: n

q: Entry "O=C(CC(c1ccccc1)c1ccccc1)Nc1ncn[nH]1" : call = ?
a: n

q: Per the records of this test, what outcome belongs to "CC(C)Cn1c(=O)c(C(=O)N/N=C/c2cccc(F)c2)c(O)c2ccccc21" ?
a: n

q: Entry "Cc1cc(C(=O)CCl)c(C)n1-c1cccc([N+](=O)[O-])c1" : call = ?
a: n

q: Called result for "C/C(=N\NS(=O)(=O)c1ccc(Br)cc1)c1cccs1"
a: n

q: Outcome logged for "CCOC(=O)NC(=S)Nc1ccc(C(C)(C)C)cc1Br" in this assay:
a: y

q: Dear colleague, could you share the recorded outcome for "Cc1cc(C)c2nc(NC(=O)c3cc(C)on3)sc2c1" when you have a moment?
a: y

q: I'd appreciate the recorded outcome for "CN(C)CCCNc1nc2sc3c(c2c(=O)n1CCc1ccccc1)CCCCC3" from this test.
a: n

q: What call does the record list for "O=c1[nH]cc(S(=O)(=O)c2ccccc2)[nH]1" ?
a: n

q: Recorded test outcome, item "Cc1ccc(NC(=O)Nc2ccc3c(c2)CCC3)cc1"
a: n

q: Recorded test call requested for "O=C(NC(=S)Nc1ccc2c(c1)OCCO2)c1cccc2ccccc12"
a: n

q: Outcome? "CCOC(=O)N1CCC(N2C(=O)c3ccc(C(=O)NCCC(C)C)cc3C2=O)CC1"
a: y

q: Recorded test call requested for "O=C1CCC/C(=N\NC(=O)c2ccc(COc3cccc4cccnc34)cc2)C1"
a: n

q: Each compound tested received a call. Report the one for "CN(C)CCNc1nc2sc3c(c2c(=O)n1CCc1ccccc1)CCCCC3" .
a: y

q: Which outcome was assigned to "O=C(NC(=S)N1CCCCCC1)c1ccccc1" in this test?
a: n

q: Please state the recorded outcome for this compound: CCOC(=O)c1cc(CC)sc1NC(=O)CC1Sc2ccc(C(F)(F)F)cc2NC1=O (stereo unspecified)
a: n

q: What outcome does the record of this test show for "O=[N+]([O-])c1cc(CN2CCCC2)ccc1Sc1ccc(Cl)cc1" ?
a: n

q: Recorded test call requested for "COC(=O)COc1ccc(-c2ccccc2)cc1C=O"
a: y

q: # fetch the recorded call for CSC(C(=O)c1cc2ccccc2o1)c1ccccc1 (stereo unspecified) here
a: n

q: What did the test return for "O=C(NC(=S)N1CCN(c2c(Cl)cccc2[N+](=O)[O-])CC1)c1cccs1" ?
a: y

q: Recorded test outcome, item "O=c1c2ccccc2sn1-c1ccccc1"
a: y

q: Assay result, entry "CCn1c2ccccc2c2cc(CC(N)=O)ccc21" — outcome?
a: n

q: Per the records of this test, what outcome belongs to "Cc1nc2ccccn2c1C(=O)N/N=C/c1ccccc1" ?
a: n

q: For Oc1[nH]c2c(Cl)cc(Cl)cc2c1N=NC(=S)NCC1CCCO1 (stereo unspecified) , what call appears in the results of this test?
a: y

q: Just curious, what result did "O=c1oc2cc(OCCO)ccc2c2c1CCCC2" get here?
a: n

q: Which result was noted for this compound in the test: "CCCCCCCC/C=C\CCCCCCCC(=O)O"
a: y

q: Hi, sorry to bother you, what did the test record for "Cn1cc(C(=O)N/N=C/c2ccc([N+](=O)[O-])cc2)c2ccccc21" ?
a: n

q: So what was the verdict on "Cc1ccc(-c2nc3c(Cl)cc(Cl)cc3c(=O)n2O)cc1" in this test?
a: y

q: Returns: the outcome recorded for "COc1ccccc1CNCc1cccc(Oc2ccccc2)c1" in this assay.
a: n

q: Query: recorded result category for "O=Cc1ccccc1OCCCOc1cccc2cccnc12" in this test
a: n

q: Hi, sorry to bother you, what did the test record for "COc1ccc(-c2cc(-c3ccccc3)c(C#N)c(=S)[nH]2)cc1" ?
a: n
